- target.under.test: AKT1 (human) (UniProt P31749)
- Sequence (P31749 whole entry, looked up): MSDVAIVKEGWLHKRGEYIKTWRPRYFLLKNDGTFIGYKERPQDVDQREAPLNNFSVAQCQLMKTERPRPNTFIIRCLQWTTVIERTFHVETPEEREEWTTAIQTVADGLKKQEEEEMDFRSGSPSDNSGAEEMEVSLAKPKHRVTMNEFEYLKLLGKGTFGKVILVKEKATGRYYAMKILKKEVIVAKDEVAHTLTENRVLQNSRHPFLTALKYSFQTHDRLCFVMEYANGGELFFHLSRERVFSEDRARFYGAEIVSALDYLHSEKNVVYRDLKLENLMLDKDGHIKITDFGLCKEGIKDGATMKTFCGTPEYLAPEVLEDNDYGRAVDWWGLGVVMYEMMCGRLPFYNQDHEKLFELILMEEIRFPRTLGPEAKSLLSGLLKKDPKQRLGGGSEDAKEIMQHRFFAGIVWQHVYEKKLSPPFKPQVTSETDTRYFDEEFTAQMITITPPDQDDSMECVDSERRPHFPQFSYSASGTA
- run.description: Free Choice Kinase Assay Projects, Flashplate
- protocol.conditions: compound 10.0 µM; ATP 3 µM
Assign residual activity to each entry below.
Answers are plain numbers, in %.

Some solved cases for reference:
>>> measured("On1c(CCc2ccccc2)nc(-c2ccncc2)c1-c1ccc(F)cc1")
144
>>> measured("Fc1ccc(-c2[nH]c(CCc3ccccc3)nc2-c2ccncc2)cc1")
76

Need residual activity for each of these compounds.
1. CSc1nc(-c2ccnc(F)c2)c(-c2ccc(F)cc2)[nH]1
2. CSc1nc(-c2ccnc(NC(=O)C3CC3)c2)c(-c2ccc(F)cc2)n1C
3. Oc1cccc(CSc2nc(-c3ccncc3)c(-c3ccc(F)cc3)[nH]2)c1
4. CSc1ccccc1CSc1nc(-c2ccncc2)c(-c2ccc(F)cc2)[nH]1

**Result**
102
121
144
137

----------
- target.under.test: SRC (human)
- run.description: Free Choice Kinase Assay Projects, Flashplate
- protocol.conditions: compound 10.0 µM; ATP 0.3 µM
metric: residual activity (%)
Answers are plain numbers, in %.

Some solved cases for reference:
>>> measured("Fc1ccc(-c2[nH]c(SCc3ccccc3)nc2-c2ccnc(F)c2)cc1")
18
>>> measured("CSc1ccc(CSc2nc(-c3ccncc3)c(-c3ccc(Br)cc3)[nH]2)cc1")
30
>>> measured("CSc1ccc(CSc2nc(-c3ccncc3)c(-c3ccc(F)cc3)[nH]2)cc1")
20
>>> measured("CSc1ccccc1CSc1nc(-c2ccncc2)c(-c2ccc(F)cc2)[nH]1")
29
>>> measured("On1c(CCc2ccccc2)nc(-c2ccncc2)c1-c1ccc(F)cc1")
4
>>> measured("Fc1ccc(-c2[nH]c(SCCCc3ccccc3)nc2-c2ccncc2)cc1")
33
>>> measured("CSc1nc(-c2ccnc(NC(=O)C3CC3)c2)c(-c2ccc(F)cc2)n1C")
13
>>> measured("Oc1ccc(CSc2nc(-c3ccncc3)c(-c3ccc(F)cc3)[nH]2)cc1")
34

Need residual activity for each of these compounds.
1. Fc1ccc(-c2[nH]c(SCc3ccccc3)nc2-c2ccnc(Cl)c2)cc1
2. Oc1ccccc1CSc1nc(-c2ccncc2)c(-c2ccc(F)cc2)[nH]1
3. Fc1ccc(-c2[nH]c(SCC3CCCCC3)nc2-c2ccncc2)cc1
4. Fc1ccc(-c2[nH]c(SCc3ccccc3)nc2-c2ccncc2)cc1
5. CSc1nc(-c2ccnc(NC(=O)C3CCCC3)c2)c(-c2ccc(F)cc2)n1C
6. Fc1ccc(-c2[nH]c(SCc3cccc4ccccc34)nc2-c2ccncc2)cc1

**Result**
1. 17
2. 32
3. 38
4. 42
5. 43
6. 8

Need residual activity for each of these compounds.
1. Oc1cccc(CSc2nc(-c3ccncc3)c(-c3ccc(F)cc3)[nH]2)c1
2. Fc1ccc(-c2[nH]c(SCCc3ccccc3)nc2-c2ccncc2)cc1
3. CC(Nc1cc(-c2nc(SCc3ccccc3)[nH]c2-c2ccc(F)cc2)ccn1)c1ccccc1 (stereo unspecified)
4. N#CCSc1nc(-c2ccncc2)c(-c2ccc(F)cc2)[nH]1
5. CSc1nc(-c2ccnc(F)c2)c(-c2ccc(F)cc2)[nH]1
6. COc1ccc(C(=O)Nc2cc(-c3nc(SC)n(C)c3-c3ccc(F)cc3)ccn2)cc1

**Result**
1. 12
2. 43
3. 14
4. 8
5. 60
6. 9

**Query** Field request: residual activity | item: Fc1ccc(-c2[nH]c(CCc3ccccc3)nc2-c2ccncc2)cc1
**Result** 1
